# ASSAY SYSTEM: CDK2/Cyclin A (Homo sapiens)
# TEST DESCRIPTION: Inhibition of CDK2/Cyclin A Retinoblastoma Kinase Activity
# Assay type: biochemical
# ASSAY CONDITIONS: 0.03 μM compound; Table 3
Kindly apply the following: true if CDK2 % Inhibition at 0.03 μM is less than 40%, false in every other case.

{"COMPOUND": "Nc1nc(NC2CCN(S(=O)(=O)c3ccc(S(=O)(=O)c4ccccc4)s3)CC2)sc1C(=O)c1c(F)cccc1F", "ASSAY SYSTEM": "CDK2/Cyclin A (Homo sapiens)", "CLASS": "false"}
{"COMPOUND": "Nc1nc(NC2CCN(S(=O)(=O)c3cccc4ccccc34)CC2)sc1C(=O)c1c(F)cccc1F [Example P1]", "ASSAY SYSTEM": "CDK2/Cyclin A (Homo sapiens)", "CLASS": "false"}
{"COMPOUND": "Nc1nc(NC2CCN(S(=O)(=O)c3cccc([N+](=O)[O-])c3)CC2)sc1C(=O)c1c(F)cccc1F", "ASSAY SYSTEM": "CDK2/Cyclin A (Homo sapiens)", "CLASS": "true"}
{"COMPOUND": "COC(=O)c1ccccc1S(=O)(=O)N1CCC(Nc2nc(N)c(C(=O)c3c(F)cccc3F)s2)CC1", "ASSAY SYSTEM": "CDK2/Cyclin A (Homo sapiens)", "CLASS": "false"}
{"COMPOUND": "Nc1nc(NC2CCN(S(=O)(=O)c3ccc(CNC(=O)c4ccc(Cl)cc4)s3)CC2)sc1C(=O)c1c(F)cccc1F", "ASSAY SYSTEM": "CDK2/Cyclin A (Homo sapiens)", "CLASS": "false"}
{"COMPOUND": "CN(C)c1cccc2c(S(=O)(=O)N3CCC(Nc4nc(N)c(C(=O)c5c(F)cccc5F)s4)CC3)cccc12 [Example P2]", "ASSAY SYSTEM": "CDK2/Cyclin A (Homo sapiens)", "CLASS": "false"}
{"COMPOUND": "CCc1cc(Br)ccc1S(=O)(=O)N1CCC(Nc2nc(N)c(C(=O)c3c(F)cccc3F)s2)CC1", "ASSAY SYSTEM": "CDK2/Cyclin A (Homo sapiens)", "CLASS": "true"}

* * *

# ASSAY SYSTEM: CDK2/Cyclin A (Homo sapiens)
# TEST DESCRIPTION: Inhibition of CDK2/Cyclin A Retinoblastoma Kinase Activity
# Format: biochemical
# ASSAY CONDITIONS: 0.03 μM compound; Table 3

{"COMPOUND": "Cc1cc(C)c(S(=O)(=O)N2CCC(Nc3nc(N)c(C(=O)c4c(F)cccc4F)s3)CC2)c(C)c1 [Example P10]", "ASSAY SYSTEM": "CDK2/Cyclin A (Homo sapiens)", "CDK2 % Inhibition at 0.03 μM (%)": "−14"}
{"COMPOUND": "Nc1nc(NC2CCN(S(=O)(=O)c3ccc(F)cc3Cl)CC2)sc1C(=O)c1c(F)cccc1F [Example P55]", "ASSAY SYSTEM": "CDK2/Cyclin A (Homo sapiens)", "CDK2 % Inhibition at 0.03 μM (%)": 43}
{"COMPOUND": "Cn1nc(-c2ccc(S(=O)(=O)N3CCC(Nc4nc(N)c(C(=O)c5c(F)cccc5F)s4)CC3)s2)cc1C(F)(F)F [Example P44]", "ASSAY SYSTEM": "CDK2/Cyclin A (Homo sapiens)", "CDK2 % Inhibition at 0.03 μM (%)": 55}
{"COMPOUND": "Cc1c(S(=O)(=O)N2CCC(Nc3nc(N)c(C(=O)c4c(F)cccc4F)s3)CC2)sc2ccc(Cl)cc12 [Example P69]", "ASSAY SYSTEM": "CDK2/Cyclin A (Homo sapiens)", "CDK2 % Inhibition at 0.03 μM (%)": "−2"}
{"COMPOUND": "CS(=O)(=O)c1ccccc1S(=O)(=O)N1CCC(Nc2nc(N)c(C(=O)c3c(F)cccc3F)s2)CC1 [Example P81]", "ASSAY SYSTEM": "CDK2/Cyclin A (Homo sapiens)", "CDK2 % Inhibition at 0.03 μM (%)": "−5"}
{"COMPOUND": "COc1ccc(S(=O)(=O)N2CCC(Nc3nc(N)c(C(=O)c4c(F)cccc4F)s3)CC2)cc1OC [Example P38]", "ASSAY SYSTEM": "CDK2/Cyclin A (Homo sapiens)", "CDK2 % Inhibition at 0.03 μM (%)": 73}
{"COMPOUND": "Nc1nc(NC2CCN(S(=O)(=O)c3ccc4ccccc4c3)CC2)sc1C(=O)c1c(F)cccc1F [Example P3]", "ASSAY SYSTEM": "CDK2/Cyclin A (Homo sapiens)", "CDK2 % Inhibition at 0.03 μM (%)": 64}

* * *

# ASSAY SYSTEM: human CDK4 and genetically truncated (1-264) cyclin D3 (Homo sapiens, UniProt P11802)
# Sequence (P11802 whole entry, the tested form may be a part): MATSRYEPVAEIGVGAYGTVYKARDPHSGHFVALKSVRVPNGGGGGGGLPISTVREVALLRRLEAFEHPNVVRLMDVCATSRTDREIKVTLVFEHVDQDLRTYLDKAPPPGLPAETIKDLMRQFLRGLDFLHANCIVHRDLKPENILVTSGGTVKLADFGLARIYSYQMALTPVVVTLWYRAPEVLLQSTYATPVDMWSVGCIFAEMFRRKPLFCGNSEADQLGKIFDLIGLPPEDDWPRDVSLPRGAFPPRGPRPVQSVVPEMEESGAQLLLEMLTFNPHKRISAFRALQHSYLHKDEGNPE
# Sequence (P30281 1-264 partner): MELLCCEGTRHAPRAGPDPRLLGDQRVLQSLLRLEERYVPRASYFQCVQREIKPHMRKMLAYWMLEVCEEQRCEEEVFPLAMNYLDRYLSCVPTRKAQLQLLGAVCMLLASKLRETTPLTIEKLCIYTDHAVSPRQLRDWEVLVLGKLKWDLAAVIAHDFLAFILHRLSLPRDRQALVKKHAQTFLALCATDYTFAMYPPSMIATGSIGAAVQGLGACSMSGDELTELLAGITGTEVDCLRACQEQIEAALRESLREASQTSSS
# TEST DESCRIPTION: Inhibition of CDK4/Cyclin D Retinoblastoma Kinase Activity
# Assay type: biochemical
# ASSAY CONDITIONS: 0.03 μM compound; Table 2
Quick reference: CDK4 % Inhibition at 0.03 μM of the listed items.

{"MOLECULE": "COC(=O)c1ccccc1NC(=O)N1CCC(Nc2nc(N)c(C(=O)c3c(F)cccc3F)s2)CC1 [Example O39]", "CDK4 % Inhibition at 0.03 μM, %": 13}
{"MOLECULE": "N#Cc1cccc(NC(=O)N2CCC(Nc3nc(N)c(C(=O)c4c(F)cccc4F)s3)CC2)c1 [Example O43]", "CDK4 % Inhibition at 0.03 μM, %": 10}
{"MOLECULE": "Nc1nc(NC2CCN(C(=O)Nc3ccccc3Cl)CC2)sc1C(=O)c1c(F)cccc1F [Example O6]", "CDK4 % Inhibition at 0.03 μM, %": 10}
{"MOLECULE": "COC(=O)[C@H](CC(C)C)NC(=O)N1CCC(Nc2nc(N)c(C(=O)c3c(F)cccc3F)s2)CC1 [Example O77]", "CDK4 % Inhibition at 0.03 μM, %": 8}
{"MOLECULE": "Cc1cc(C)cc(NC(=O)N2CCC(Nc3nc(N)c(C(=O)c4c(F)cccc4F)s3)CC2)c1 [Example O49]", "CDK4 % Inhibition at 0.03 μM, %": "−1"}
{"MOLECULE": "Nc1nc(NC2CCN(C(=O)Nc3cccnc3)CC2)sc1C(=O)c1c(F)cccc1F [Example O86]", "CDK4 % Inhibition at 0.03 μM, %": 23}
{"MOLECULE": "Nc1nc(NC2CCN(C(=O)NCCc3ccc4c(c3)OCO4)CC2)sc1C(=O)c1c(F)cccc1F [Example O87]", "CDK4 % Inhibition at 0.03 μM, %": 16}
{"MOLECULE": "CC(=O)c1cccc(NC(=O)N2CCC(Nc3nc(N)c(C(=O)c4c(F)cccc4F)s3)CC2)c1 [Example O47]", "CDK4 % Inhibition at 0.03 μM, %": 14}
{"MOLECULE": "Nc1nc(NC2CCN(C(=O)NCCc3cccs3)CC2)sc1C(=O)c1c(F)cccc1F [Example O65]", "CDK4 % Inhibition at 0.03 μM, %": "−7"}
{"MOLECULE": "Nc1nc(NC2CCN(C(=O)Nc3cccc(C(F)(F)F)c3)CC2)sc1C(=O)c1c(F)cccc1F [Example O16]", "CDK4 % Inhibition at 0.03 μM, %": 5}
{"MOLECULE": "COc1ccc(NC(=O)N2CCC(Nc3nc(N)c(C(=O)c4c(F)cccc4F)s3)CC2)c(OC)c1 [Example O8]", "CDK4 % Inhibition at 0.03 μM, %": 15}

* * *

# ASSAY SYSTEM: CDK2/Cyclin A (Homo sapiens, UniProt P24941)
# TEST DESCRIPTION: Inhibition of CDK2/Cyclin A Retinoblastoma Kinase Activity
# ASSAY CONDITIONS: apparent Ki, CDK2/proteolyzed cyclin A, Rb fragment substrate, 25 μM ATP
Where a name gives a salt, the structure may show the parent alone.
Quick reference: Ki of the listed items.

{"COMPOUND": "Nc1nc(NC2CCN(S(=O)(=O)c3ccc(CCN4CCC(O)C4)nc3)CC2)sc1C(=O)c1c(F)cccc1F (stereo not shown) [Example N7, Hydrochloride Salt]", "READING QUALIFIER": "=", "Ki (nM)": 0.93}
{"COMPOUND": "CC1=NC(C)CN1c1ccc(S(=O)(=O)N2CCC(Nc3nc(N)c(C(=O)c4c(F)cccc4F)s3)CC2)cn1 (stereo not shown) [Example G23, Hydrochloride]", "READING QUALIFIER": "<", "Ki (nM)": 1}
{"COMPOUND": "C=C(C)CN(C)CCCS(=O)(=O)N1CCC(Nc2nc(N)c(C(=O)c3c(F)cccc3F)s2)CC1 [Example V177]", "READING QUALIFIER": "=", "Ki (nM)": 17}
{"COMPOUND": "Nc1nc(NC2CCN(S(=O)(=O)CCN3CCCC3c3ccccc3)CC2)sc1C(=O)c1c(F)cccc1F (stereo not shown) [Example K29, Trifluoroacetic Acid Salt]", "READING QUALIFIER": "=", "Ki (nM)": 3.7}
{"COMPOUND": "CNCCS(=O)(=O)N1CCC(Nc2nc(N)c(C(=O)c3c(F)cccc3F)s2)CC1 [Example K33, Trifluoroacetic Acid Salt]", "READING QUALIFIER": "=", "Ki (nM)": 5.6}
{"COMPOUND": "COc1ccc(/C=C/C(=O)N2CCC(Nc3nc(N)c(C(=O)c4c(F)cccc4F)s3)CC2)c(Cl)c1OC [Example C7]", "READING QUALIFIER": "=", "Ki (nM)": 32}
{"COMPOUND": "CN(C)CCN(C)c1ccc(S(=O)(=O)N2CCC(Nc3nc(N)c(C(=O)c4c(F)cccc4F)s3)CC2)cn1 [Example G1, Trifluoroacetic Acid Salt]", "READING QUALIFIER": "=", "Ki (nM)": 1.4}
{"COMPOUND": "CN1CCN=C1c1ccc(S(=O)(=O)N2CCC(Nc3nc(N)c(C(=O)c4c(F)cccc4F)s3)CC2)cc1 [Example J1]", "READING QUALIFIER": "<", "Ki (nM)": 1}
{"COMPOUND": "Nc1nc(NC2CCN(C(=O)Oc3ccc(Cl)cc3)CC2)sc1C(=O)c1c(F)cccc1F [Example C3]", "READING QUALIFIER": "=", "Ki (nM)": 17}
{"COMPOUND": "Nc1nc(NC2CCN(S(=O)(=O)CCN3CC=CC3)CC2)sc1C(=O)c1c(F)cccc1F [Example K36]", "READING QUALIFIER": "=", "Ki (nM)": 7.5}
{"COMPOUND": "CC(=O)Nc1ccc(S(=O)(=O)N2CCC(Nc3nc(N)c(C(=O)c4c(F)cccc4F)s3)CC2)cc1 [Example F5]", "READING QUALIFIER": "<", "Ki (nM)": 1}
{"COMPOUND": "CCCN(CCCS(=O)(=O)N1CCC(Nc2nc(N)c(C(=O)c3c(F)cccc3F)s2)CC1)CC1CC1 [Example K6]", "READING QUALIFIER": "=", "Ki (nM)": 5.8}
{"COMPOUND": "COc1ccc(S(=O)(=O)N2CCC(Nc3nc(N)c(C(=O)c4c(F)cccc4F)s3)CC2)cc1 [Example F7]", "READING QUALIFIER": "=", "Ki (nM)": 0.8}
